Subject Of Test: UniProt:Q12809
Sequence (Q12809 whole entry, looked up): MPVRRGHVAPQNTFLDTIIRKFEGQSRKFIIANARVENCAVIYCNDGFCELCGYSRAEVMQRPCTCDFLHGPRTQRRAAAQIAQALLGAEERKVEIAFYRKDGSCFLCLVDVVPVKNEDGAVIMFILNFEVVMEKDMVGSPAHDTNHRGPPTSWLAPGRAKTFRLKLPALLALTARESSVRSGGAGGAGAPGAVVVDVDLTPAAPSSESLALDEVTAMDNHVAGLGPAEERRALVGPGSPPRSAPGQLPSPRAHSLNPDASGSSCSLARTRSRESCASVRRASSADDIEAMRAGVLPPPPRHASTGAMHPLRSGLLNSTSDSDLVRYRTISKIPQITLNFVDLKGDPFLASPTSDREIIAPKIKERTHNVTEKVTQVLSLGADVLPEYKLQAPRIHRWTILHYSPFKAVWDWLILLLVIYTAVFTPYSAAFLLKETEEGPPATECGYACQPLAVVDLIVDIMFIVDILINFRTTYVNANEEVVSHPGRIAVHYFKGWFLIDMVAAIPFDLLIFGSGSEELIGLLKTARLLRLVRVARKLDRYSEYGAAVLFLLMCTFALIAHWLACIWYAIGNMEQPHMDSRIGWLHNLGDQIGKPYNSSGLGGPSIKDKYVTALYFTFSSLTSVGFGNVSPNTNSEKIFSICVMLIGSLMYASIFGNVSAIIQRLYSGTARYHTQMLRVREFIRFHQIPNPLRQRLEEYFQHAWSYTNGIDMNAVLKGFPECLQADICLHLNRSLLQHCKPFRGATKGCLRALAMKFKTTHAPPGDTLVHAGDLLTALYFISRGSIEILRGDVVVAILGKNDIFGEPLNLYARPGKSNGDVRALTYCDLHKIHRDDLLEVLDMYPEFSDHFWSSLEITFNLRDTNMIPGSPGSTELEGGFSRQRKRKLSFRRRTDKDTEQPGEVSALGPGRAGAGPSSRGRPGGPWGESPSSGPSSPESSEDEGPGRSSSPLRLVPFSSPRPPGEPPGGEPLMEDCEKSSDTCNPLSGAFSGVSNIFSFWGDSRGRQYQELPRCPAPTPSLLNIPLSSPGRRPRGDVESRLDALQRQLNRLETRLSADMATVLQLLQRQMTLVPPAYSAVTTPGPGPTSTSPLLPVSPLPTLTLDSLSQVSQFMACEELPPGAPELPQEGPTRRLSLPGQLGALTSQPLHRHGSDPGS
Protocol Description: hERG channel inhibition in selectivity testing, SAR follow-up, selectivity assay for TASK1 inhibitor project, FluxOR thallium flux, concentration-response, CHO cells (AID 652194)
Test Context: hERG-expressing cells, FluxOR thallium flux fluorescence; at 30 µM (top of the series)
Activity calls are given as the source filed them.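 The calls were made as follows: active = hERG flux cut by over 30% at some tested dose, with a fitted dose response curve; inactive = no hERG inhibition at any dose or no curve.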
Reported Endpoint: flux ratio, lower = inhibition

> print(dat)
                                    compound  subject.of.test  measured.result
 1    O=C(Nc1cccc(NC(=O)c2ccccc2)c1)c1ccccc1   UniProt:Q12809         inactive
 2  COc1ccccc1C(=O)Nc1cc(NC(=O)c2ccccc2C(C)C)ccc1F   UniProt:Q12809         inactive
 3  CCOc1ccccc1NC(=O)c1cccc(NC(=O)c2cccc(C)c2)c1   UniProt:Q12809         inactive
 4  COc1ccccc1NC(=O)c1cccc(NC(=O)C2CCCCC2)c1   UniProt:Q12809         inactive
 5  CCOc1ccc(NC(=O)c2cccc(NC(=O)C3CCCC3)c2)cc1   UniProt:Q12809         inactive
 6  O=C(Nc1cccc(NC(=O)c2ccccc2Cl)c1)c1ccccc1   UniProt:Q12809         inactive
 7  O=C(Nc1cccc(NC(=O)c2cccc(C(F)(F)F)c2)c1)c1ccccc1   UniProt:Q12809         inactive
 8  CCOc1ccccc1NC(=O)c1cccc(NC(=O)C2CCOC2)c1 (centres undefined)   UniProt:Q12809         inactive
 9  CC(C)Oc1ccccc1C(=O)Nc1cccc(NC(=O)c2ccccc2OC(F)(F)F)c1   UniProt:Q12809         inactive
10  Cc1cccc(C(=O)Nc2cccc(NC(=O)c3ccccc3C)c2)c1   UniProt:Q12809         inactive
11  O=C(Nc1cccc(NC(=O)c2ccc(Cl)cc2)c1)c1ccccc1   UniProt:Q12809         inactive
12  CCOc1ccccc1NC(=O)c1cccc(NC(=O)c2cccc(OC)c2)c1   UniProt:Q12809         inactive
13  CCOc1ccccc1NC(=O)c1cccc(NC(=O)c2ccc(C(F)(F)F)cc2)c1   UniProt:Q12809         inactive
14  Cc1cccc(C(=O)Nc2cccc(NC(=O)c3cccc(F)c3)c2)c1   UniProt:Q12809         inactive
15  Cc1cccc(C(=O)Nc2cccc(NC(=O)c3ccncc3)c2)c1   UniProt:Q12809         inactive
16  COc1ccccc1NC(=O)c1cccc(NC(=O)c2ccccc2OC)c1   UniProt:Q12809         inactive
17   Cc1cccc(NC(=O)c2ccccc2NC(=O)c2ccccc2)c1   UniProt:Q12809         inactive
18  CCOc1ccccc1NC(=O)c1cccc(NC(=O)c2ccccc2C)c1   UniProt:Q12809         inactive
19  Cc1cccc(C(=O)Nc2cccc(NC(=O)c3cccs3)c2)c1   UniProt:Q12809         inactive
20  Cc1cccc(S(=O)(=O)Nc2cccc(NC(=O)c3ccccc3)c2)c1   UniProt:Q12809         inactive
21  CCOc1ccccc1NC(=O)c1cccc(NC(=O)c2ccc(C)cc2)c1   UniProt:Q12809         inactive
22    O=C(Nc1cccc(NC(=O)c2ccncc2)c1)c1ccccc1   UniProt:Q12809         inactive
23  COc1ccccc1C(=O)Nc1cccc(NC(=O)c2ccccc2C(C)C)c1   UniProt:Q12809         inactive
24  COc1ccc(F)cc1C(=O)Nc1cccc(NC(=O)c2cccc(C)c2)c1   UniProt:Q12809         inactive
25  COc1ccccc1NC(=O)c1cccc(NC(=O)c2ccccc2C(F)(F)F)c1   UniProt:Q12809         inactive
26  O=C(Nc1cccc(NC(=O)c2ccc(F)cc2)c1)c1ccccc1   UniProt:Q12809         inactive
27   Cc1cccc(C(=O)Nc2ccccc2NC(=O)c2ccccc2)c1   UniProt:Q12809         inactive
28  CCOc1ccccc1C(=O)Nc1cccc(NC(=O)c2ccccc2C(F)(F)F)c1   UniProt:Q12809         inactive
29  COc1ccccc1NC(=O)c1cccc(NC(=O)c2ccccc2)c1   UniProt:Q12809         inactive
30  CCOc1ccccc1NC(=O)c1cccc(NC(=O)c2ccc(OC)cc2)c1   UniProt:Q12809         inactive
31  Cc1cccc(C(=O)Nc2cccc(NC(=O)c3ccccc3Cl)c2)c1   UniProt:Q12809         inactive
32  CCOc1ccccc1NC(=O)c1cccc(NC(=O)c2cccc(Cl)c2)c1   UniProt:Q12809         inactive
33  COc1cccc(OC)c1C(=O)Nc1cccc(NC(=O)c2cccc(C)c2)c1   UniProt:Q12809         inactive
34  Cc1cccc(C(=O)Nc2cccc(NC(=O)c3ccccc3)c2)c1   UniProt:Q12809         inactive
35  COc1ccccc1C(=O)Nc1cc(NC(=O)c2cccc(C)c2)ccc1F   UniProt:Q12809         inactive
36  COc1ccccc1C(=O)Nc1cccc(NC(=O)c2ccccc2OC(F)(F)F)c1   UniProt:Q12809         inactive
37  CC(C)c1ccccc1C(=O)Nc1cccc(NC(=O)c2ccccc2OC(F)(F)F)c1   UniProt:Q12809         inactive
38    O=C(Nc1cccc(NC(=O)c2ccccn2)c1)c1ccccc1   UniProt:Q12809         inactive
39  Cc1ccc(C(=O)Nc2cccc(NC(=O)c3ccccc3)c2)cc1   UniProt:Q12809         inactive
40  Cc1cccc(C(=O)Nc2cccc(C(=O)Nc3ccccc3)c2)c1   UniProt:Q12809         inactive
41  CN(C)c1ccc(C(=O)Nc2cccc(NC(=O)c3ccccc3)c2)cc1   UniProt:Q12809         inactive
42  COc1ccccc1C(=O)Nc1cccc(NC(=O)c2ccccc2OC)c1   UniProt:Q12809         inactive
43  Cc1cccc(C(=O)Nc2cccc(NC(=O)c3ccccc3C(C)C)c2)c1   UniProt:Q12809         inactive
44  COc1ccccc1C(=O)Nc1cccc(NC(=O)c2ccccc2C)c1   UniProt:Q12809         inactive
